Measured EC50, listed per entry for reference.
Experiment: Neuroprotective activity against 6-hydroxydopamine-induced human SH-SY5Y cell death after 24 hrs by MTT assay
Type: functional, cell-based
Measure name: EC50

{"columns": ["Compound", "Measure name", "Result"],
 "data": [
  ["CC1(C)C=Cc2c(cc(O)c3c(=O)c4cc(O)ccc4oc23)O1", "EC50", "15.5 µM"],
  ["COc1cc(/C=C/C(=O)CC(=O)/C=C/c2ccc(O)c(OC)c2)ccc1O", "EC50", "6 µM"],
  ["C=CC(C)(C)c1c(O)cc(O)c2c(=O)c3ccc(O)c(OC)c3oc12", "EC50", "0.7 µM"],
  ["CC(C)=CCc1c(O)c(O)cc2c(=O)c3c4c(c(O)cc3oc12)C(C)(C)C(C)O4 (centres undefined)", "EC50", "2.4 µM"],
  ["C=CC(C)(C)c1c(O)cc(O)c2c(=O)c3c(cc(O)c4oc(C(=C)C)cc43)oc12", "EC50", "0.8 µM"],
  ["CC1(C)C=Cc2c(cc(O)c3c(=O)c4c5c(ccc4oc23)OC(C)(C)C=C5)O1", "EC50", "4.5 µM"],
  ["CC1(C)C=Cc2c(cc(O)c3c(=O)c4cccc(O)c4oc23)O1", "EC50", "5.1 µM"],
  ["C=CC(C)(C)c1c(O)cc(O)c2c(=O)c3c(CC(=O)C(=C)C)c(OC)c(O)cc3oc12", "EC50", "7.2 µM"],
  ["C=CC(C)(C)c1c(O)cc(O)c2c(=O)c3c(CC(O)C(=C)C)c(O)c(O)cc3oc12 (centres undefined)", "EC50", "16.6 µM"]
]}

* * *

Experiment: Neuroprotective activity against 6-hydroxydopamine-induced human SH-SY5Y cell death after 24 hrs by MTT assay
Format: functional, cell-based
pEC50: −log10 of the molar value.
Measured pEC50, listed per entry for reference.

{"columns": ["Compound", "pEC50"],
 "data": [
  ["CC1Oc2cc3oc4c5c(c(O)cc4c(=O)c3c(O)c2C1(C)C)OC(C)(C)C(O)C5 (centres undefined)", 5.66],
  ["C=CC(C)(C)c1c(O)cc2oc3c(CC=C(C)C)c(O)c(O)cc3c(=O)c2c1O", 5.09],
  ["C=CC(C)(C)c1c(OC)cc(O)c2c(=O)c3c(CC(O)C(=C)C)c(O)c(O)cc3oc12 (centres undefined)", 5.64],
  ["CC(C)=CCc1c2c(c(O)c3c(=O)c4ccc(O)c(O)c4oc13)C(C)(C)C(C)O2 (centres undefined)", 5.52]
]}
